- Test system: SR
- test-description: NCI tumour cell line growth inhibition, 48 h
Active and inactive are the calls of the source. No stated cut-off is given here; in the data, active = GI50 up to about 1.1 µM and inactive = higher. Starred links: 1 amine or outer side, 2 acyl side, 3 side chain; linkers in the order of their positions; H or OH if unused. Positions of bridges follow the written chain, without caps; N, C: chain ends. Non-standard residues stand in square brackets, D forms with d. Residues, ends and D or L forms follow the SMILES beside them. Chains are numbered I, II in the order given. Actinocin(1to9) = Cc1c2oc3c(C)ccc(C(=O)[*:2])c3nc-2c(C(=O)[*:1])c(N)c1=O; NMeV = CN[CH](C(=O)O)C(C)C; Sar = CNCC(=O)O
Outcomes: active, inactive

>  <compound>
CC1=C(C(=O)Nc2ccccc2)C(c2ccc(C)o2)C(C#N)=C(SCc2ccccc2)N1 (stereo unspecified)

>  <category-label>
inactive

$$$$
>  <compound>
O=C(/C=C/c1ccccc1)c1cc(Br)ccc1O

>  <category-label>
inactive

$$$$
>  <compound>
COc1cc2c(cc1OCCN1CCN(CCOc3cc4c(cc3OC)C(=O)N3CCC[C@H]3C=N4)CC1)N=C[C@@H]1CCCN1C2=O

>  <category-label>
active

$$$$
>  <compound>
COC(=O)/C=C/c1cc2c(cc1-c1c(C(=O)O)cc(OC)c(OC)c1OC)OCO2

>  <category-label>
inactive

$$$$
>  <compound>
CCC(C)C1NC(=O)C(NC(=O)c2c3nc4c(C(=O)NC5C(=O)NC(C(C)CC)C(=O)N6CCCC6C(=O)N(C)CC(=O)N(C)C(C(C)C)C(=O)OC5C)ccc(C)c4oc-3c(C)c(=O)c2N)C(C)OC(=O)C(C(C)C)N(C)C(=O)CN(C)C(=O)C2CCCN2C1=O (stereo unspecified) (I: TIP[Sar][NMeV] / II: TIP[Sar][NMeV]; ester I:1-I:C, II:1-II:C; linker I:N-II:N via Actinocin(1to9); configuration not given here)

>  <category-label>
active

$$$$
>  <compound>
COc1ccc2c(CCNC(=O)/C=C/c3ccccc3)c(C(C)=O)[nH]c2c1[N+](=O)[O-]

>  <category-label>
inactive

$$$$
